The reported numbers originate from patent US20080044360A1.

tested_system: T1, human collagen type I, acid soluble, extracted from placenta (Sigma C7774) (human, UniProt P02452 162-1218; P08123 80-1119)
T1 construct: tissue extract, gelled and dried in wells; also called dried human collagen; h-Collagen
T1 sequence (P02452 162-1218 limits assumed, chain 1 of 2): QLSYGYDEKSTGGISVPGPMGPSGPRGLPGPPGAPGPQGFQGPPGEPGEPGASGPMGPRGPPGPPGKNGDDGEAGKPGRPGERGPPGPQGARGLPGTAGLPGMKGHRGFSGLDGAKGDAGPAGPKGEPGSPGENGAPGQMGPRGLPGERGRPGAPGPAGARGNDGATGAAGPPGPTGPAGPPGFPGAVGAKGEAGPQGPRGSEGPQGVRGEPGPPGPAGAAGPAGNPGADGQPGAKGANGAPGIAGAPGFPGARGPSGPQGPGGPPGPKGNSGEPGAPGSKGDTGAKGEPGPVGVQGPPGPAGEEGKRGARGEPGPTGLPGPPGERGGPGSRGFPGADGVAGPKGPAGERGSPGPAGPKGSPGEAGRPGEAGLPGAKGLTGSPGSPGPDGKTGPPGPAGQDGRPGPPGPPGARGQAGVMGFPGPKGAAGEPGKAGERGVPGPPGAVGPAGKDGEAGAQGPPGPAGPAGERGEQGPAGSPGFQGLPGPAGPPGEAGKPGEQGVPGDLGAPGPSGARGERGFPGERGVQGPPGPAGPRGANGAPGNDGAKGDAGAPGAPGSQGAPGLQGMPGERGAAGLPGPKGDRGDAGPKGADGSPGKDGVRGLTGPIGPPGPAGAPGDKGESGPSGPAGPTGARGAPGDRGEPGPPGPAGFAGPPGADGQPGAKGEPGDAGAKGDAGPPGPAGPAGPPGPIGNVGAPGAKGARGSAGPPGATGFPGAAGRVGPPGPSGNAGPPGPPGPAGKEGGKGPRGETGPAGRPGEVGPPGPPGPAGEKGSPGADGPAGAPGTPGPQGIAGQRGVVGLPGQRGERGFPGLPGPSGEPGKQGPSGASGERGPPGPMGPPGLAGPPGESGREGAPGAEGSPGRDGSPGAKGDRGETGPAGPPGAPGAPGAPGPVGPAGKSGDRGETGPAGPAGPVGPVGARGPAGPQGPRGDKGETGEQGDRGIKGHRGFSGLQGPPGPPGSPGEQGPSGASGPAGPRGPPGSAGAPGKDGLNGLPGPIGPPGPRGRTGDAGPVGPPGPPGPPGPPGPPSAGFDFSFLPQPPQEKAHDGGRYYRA
T1 sequence (P08123 80-1119 limits assumed, chain 2 of 2): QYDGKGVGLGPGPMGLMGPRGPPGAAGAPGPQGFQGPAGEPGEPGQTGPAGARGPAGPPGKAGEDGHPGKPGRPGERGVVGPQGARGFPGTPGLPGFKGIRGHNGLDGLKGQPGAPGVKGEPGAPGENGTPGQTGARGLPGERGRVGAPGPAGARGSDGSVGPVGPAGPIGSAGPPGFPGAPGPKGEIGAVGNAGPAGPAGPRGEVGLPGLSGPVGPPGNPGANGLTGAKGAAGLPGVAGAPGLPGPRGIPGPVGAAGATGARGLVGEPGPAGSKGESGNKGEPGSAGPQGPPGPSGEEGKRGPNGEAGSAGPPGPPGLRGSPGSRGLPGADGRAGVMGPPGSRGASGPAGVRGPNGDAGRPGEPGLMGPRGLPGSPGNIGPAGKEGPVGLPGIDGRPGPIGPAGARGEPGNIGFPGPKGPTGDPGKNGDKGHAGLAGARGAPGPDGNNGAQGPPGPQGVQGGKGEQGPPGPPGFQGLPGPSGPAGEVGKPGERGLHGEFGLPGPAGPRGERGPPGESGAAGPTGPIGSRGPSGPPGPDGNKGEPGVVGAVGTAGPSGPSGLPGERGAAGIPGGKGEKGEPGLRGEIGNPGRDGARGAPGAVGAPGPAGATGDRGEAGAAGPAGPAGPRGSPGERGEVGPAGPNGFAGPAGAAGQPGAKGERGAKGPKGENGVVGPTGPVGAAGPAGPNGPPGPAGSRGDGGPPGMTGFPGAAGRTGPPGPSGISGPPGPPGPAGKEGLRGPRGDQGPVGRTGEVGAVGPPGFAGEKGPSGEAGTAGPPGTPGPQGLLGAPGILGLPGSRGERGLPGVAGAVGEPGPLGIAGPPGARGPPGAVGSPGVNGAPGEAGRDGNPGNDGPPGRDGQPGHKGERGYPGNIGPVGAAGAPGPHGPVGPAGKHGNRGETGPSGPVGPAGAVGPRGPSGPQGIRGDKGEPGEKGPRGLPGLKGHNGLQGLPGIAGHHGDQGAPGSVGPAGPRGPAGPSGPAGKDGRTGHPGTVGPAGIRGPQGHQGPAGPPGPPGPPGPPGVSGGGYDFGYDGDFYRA
procedure_summary: dried collagen assay; note: test concentration or dose not given here
Bridge positions count the residues as written; N and C are the ends. Square brackets hold non-standard residues; d marks the D form. Ends that are not written are not given here.
endpoint_label: % bound (%)

[
  {
    "binder": "WTDCQWMDEQLWTCRWD (disulfide 4-14 (inferred), cyclic, disulfide) [SEQ ID NO 94]",
    "unit_descriptor": "%",
    "% bound": 21
  }
]

[1] YHA[dC]YQAGCWIW (disulfide 4-9 (inferred); not fully specified (C-terminus); printed as YHAcYQAGCWIW, cyclic, disulfide) [SEQ ID NO 155]
[2] DWTCSGDEYAWHCNY[dE] (disulfide 4-13 (inferred), cyclic, disulfide) [SEQ ID NO 120]
Prompt: Could you point out whether the larger % bound belongs to 1 or to 2 ? // caller expects the label of the chosen entry
Response: 2
(2: 38%, 1: 15%)
